test system: CCRF-CEM leukemia; assay: NCI tumour cell line growth inhibition, 48 h
measured quantity: TGI

Worked set:
• OCc1cc2c(ccc3sc4ccc5sc6ccc7ncccc7c6c5c4c32)s1 = > 100 µM
• Cn1c2ccccc2n2c3ncccc3c(=NCCCC(=O)O)c(C#N)c12 = > 100 µM

[ask] Give recorded TGI. COc1ccc(C(=O)Nc2ncc(Cc3cccc(Cl)c3)s2)cc1OC
[reply] > 100 µM

[ask] Identify measured TGI corresponding to N#C[C@H](C(=O)c1ccccc1F)c1nc2ccccc2s1
[reply] 73.9 µM

[ask] Please report TGI for the following compound: C=C1CC2CCCC12C=O (configuration not stated)
[reply] > 10 µM

[ask] Return value of TGI for input Nc1cc(F)ccc1CC(=O)O , no commentary.
[reply] > 100 µM

[ask] Quick one: give measured TGI for Cc1c(O)c2ccccc2oc1=O
[reply] > 100 µM

[ask] Output measured TGI for this item: CCN(CC)C(=O)Cn1c(-c2ccccc2)cc2ccccc21
[reply] > 100 µM

[ask] Please indicate TGI recorded for O=C1c2[nH]cc(CNC3CN4CCC3CC4)c2C(=O)c2c1c(O)c1ccccc1c2O (configuration not stated)
[reply] 1.56 µM

[ask] Using the record for COc1ccc2sc3cccc(NCCN(C)C)c3c(=O)c2c1 , state its measured TGI.
[reply] 8.39 µM

[ask] Return reported TGI. Input compound: CC(=O)OCC(C)C1=C(OC(C)=O)C(=O)C2(C)C/C=C(/C)CC/C=C(\C)CCC(OC(C)=O)C(C)CCC12 (configuration not stated)
[reply] 40.9 µM

[ask] Using known records, supply TGI for CC(C)(C)c1cc(-c2cc(C(C)(C)C)[nH]n2)n[nH]1
[reply] > 100 µM

---

system: 786-0 renal; experiment: NCI tumour cell line growth inhibition, 48 h; in the data active = GI50 below about 0.43 µM; inactive = the rest
Log the outcome using a class from y (active), n (inactive)

The following compounds have reported results that may help.
- Cc1cc(Cl)cc2c(N=Nc3ccc(S(N)(=O)=O)cc3)c(O)[nH]c12: n
- CCOC(=O)c1ccccc1OC(=O)NNc1ccccc1: n
- Cn1cc(C2=C(c3ccccc3[N+](=O)[O-])C(=O)NC2=O)c2ccccc21: n
- Nc1c(C(=O)c2ccc(-c3cccnc3)cc2)cnn1-c1ccc(F)cc1: n
- Cc1cc(=O)[nH]c(N/N=C/c2cc(Br)ccc2O)n1: n
- CO/C=C/C(=O)c1cc2cnc3c(=N)cc(NC(=O)C(C)C)c([nH]1)c23: y

[ask] # lookup: test call for Cc1ccc(Cl)cc1Nc1nc(C(F)(F)F)ccc1C(=O)N/N=C/c1cccnc1
[reply] n

[ask] Each compound tested received a call. Report the one for COC1C(CO)OC(n2c3ccccc3c3c4c(c5c6ccccc6[nH]c5c32)C(=O)NC4=O)C(O)C1O (stereo not drawn) .
[reply] y

---

system: MALME-3M melanoma; assay: NCI tumour cell line growth inhibition, 48 h
The entries below are paired with their reported TGI.

These solved cases illustrate the format of a correct answer.
- O=C(Cn1cc(-c2ccccc2)nn1)NC1CCCCC1: > 100 µM
- CN1C(=O)CCC2[C@@H]3CC=C4C[C@@H](O)CC[C@]4(C)C3CC[C@@]21C (some centres undefined): > 100 µM

[ask] Tell me its TGI on MALME-3M melanoma: O=C1c2cccnc2S(=O)(=O)N1c1ccc(Oc2ccccc2)cc1
[reply] > 100 µM

[ask] Provide the reported TGI (system: MALME-3M melanoma) for O=C(C=C1SCCS1)/C=C\c1ccc(Cl)cc1
[reply] > 100 µM

[ask] Find the measured TGI of N#Cc1c(NC(=O)NCc2ccccc2)sc2c1CCCC2 with MALME-3M melanoma as test system.
[reply] > 100 µM

[ask] Give reported TGI for C=CC(=O)NCCSCCCOC1(C(=O)O)CC(O)C(NC(C)=O)C(C(O)C(O)CO)O1 (centres undefined) (MALME-3M melanoma)
[reply] > 100 µM

---

test system: IGROV1 ovarian; assay: NCI tumour cell line growth inhibition, 48 h
measured quantity: TGI

• O=Cc1c2n(c3ccccc13)N[C@@](Cc1ccc(O)cc1)(C(=O)O)C2 = > 100 µM
• COc1c(O)c(OC)c2oc(-c3ccc(O)c(O)c3)c(OC)c(=O)c2c1O = 25.7 µM
• CN1CCC(COc2cnc(-c3cccc(Cn4nc(-c5cccc(C#N)c5)ccc4=O)c3)nc2)CC1 = 25.2 µM
• c1ccc2c(c1)NCCC(=NC1CCCCC1)N2 = > 100 µM
• Cc1cc(O)c2c(c1O)C(=O)c1cccc(O)c1C2=O = > 100 µM
• COc1ccc2c(c1)[n+]([O-])c(-c1ccc([N+](=O)[O-])cc1)c(N)[n+]2[O-] = > 100 µM
• O=[N+]([O-])c1ccc2nc(Cl)n[n+]([O-])c2c1 = 25.6 µM
• O=C(C=C1SCCS1)/C=C\c1ccc(Cl)cc1 = > 100 µM

Shifting focus to the compound that follows.
[ask] Respond only with TGI recorded for Cc1cc(Cl)cc2c(N=Nc3ccc(S(N)(=O)=O)cc3)c(O)[nH]c12
[reply] > 25 µM

---

test system: U251 CNS
Please reply with one of these outcomes: class 1 (active), class 0 (inactive)

Completed entries (count: 3):
• CC[C@H](NC(=O)[C@H]1CCCCN1C)C(=O)N(C)[C@H](C[C@@H](OC(C)=O)c1nc(C(=O)N[C@@H](Cc2ccccc2)C[C@H](C)C(=O)O)cs1)C(C)C = class 1
• CCOC(=O)[C@@H](C)C[C@H](Cc1ccccc1)NC(=O)c1nc([C@@H](C[C@H](C(C)C)N(C)C(=O)[C@@H](NC(=O)[C@H]2CCCCN2C)C(C)C)OC(C)=O)sc1CCOCc1ccccc1 = class 1
• COc1cc(/C=C2\C[C@H]3[C@@H]4CC=C5C[C@@H](O)CC[C@]5(C)[C@H]4CC[C@]3(C)[C@H]2O)ccc1OCCN1CCCC1 = class 0

[ask] Hi, sorry to bother you, what did the test record for CN1CCC(COc2cnc(-c3cccc(Cn4nc(-c5cccc(C#N)c5)ccc4=O)c3)nc2)CC1 ?
[reply] class 0

[ask] How did this test come out for CC1(C)N=C(N)N=C(N)N1c1ccc(CCCCc2ccccc2)c(Cl)c1 ?
[reply] class 1

[ask] Please indicate how the test categorized Nc1c(C(=O)c2ccc(-c3cccnc3)cc2)cnn1-c1ccc(F)cc1 .
[reply] class 0

[ask] For this compound, state the assay outcome: Nc1ccccc1NC(=O)c1ccc(CNc2nccc(-c3cccnc3)n2)cc1
[reply] class 0

[ask] What classification did CC(C)(C)N1CCC1CN (stereo not drawn) end up with in this test?
[reply] class 0

---

As shown below, each of these compounds has a reported TGI value.
test system: SK-MEL-5 melanoma; experiment: NCI tumour cell line growth inhibition, 48 h

[ask] Report TGI under test system SK-MEL-5 melanoma for CCCC(=O)NC(Nc1cc(C)ccn1)(C(=O)OCC)C(F)(F)F (stereo unspecified) .
[reply] > 100 µM

[ask] Determine reported TGI for C#CCNC(=O)N(CC#C)N=O ; test system: SK-MEL-5 melanoma.
[reply] > 100 µM

[ask] With SK-MEL-5 melanoma as the test system, provide measured TGI for this compound: O=C(NC(Cl)(C(F)(F)F)C(F)(F)F)c1ccc(F)cc1
[reply] > 100 µM

[ask] Find TGI for c1cnn(C23C4C5C6C4C2C6C53)c1 (stereo unspecified) on SK-MEL-5 melanoma and write it down.
[reply] > 100 µM

[ask] Give TGI for this entry on SK-MEL-5 melanoma: C=CCc1[nH]c2c(OCc3ccccc3)cc(N(CC=C)C(C)=O)cc2c1C
[reply] 24 µM

[ask] Recall the reported TGI of CCN1CCCC(C#N)(c2ccccc2)CC1 (stereo unspecified) on SK-MEL-5 melanoma and write it down.
[reply] > 100 µM

[ask] Please look at CC(C)(C)OC(=O)N[C@H]1CC(O)c2ccccc2N(CC(=O)O)C1=O (stereo partly specified) and tell me its recorded TGI on SK-MEL-5 melanoma.
[reply] > 100 µM

[ask] Provide the reported TGI (system: SK-MEL-5 melanoma) for CCOC1=NC(C(F)(F)F)(C(F)(F)F)N=C(N2CCOCC2)O1
[reply] > 100 µM

[ask] Please report the measured TGI for O=P1(Oc2ccccc2)N=P(c2ccccc2)(c2ccccc2)C=C(c2ccc(Cl)cc2)N1 (stereo unspecified) tested on SK-MEL-5 melanoma.
[reply] 10.2 µM

[ask] Report TGI on SK-MEL-5 melanoma for this entry: CCCCc1ccc(Nc2nc(Cl)c3ncn(COCCOC(C)=O)c3n2)cc1
[reply] 30.9 µM

[ask] Enter TGI (test system SK-MEL-5 melanoma) for COc1nc2ccc(COc3ccc(C(=O)NC(CCC(=O)O)C(=O)O)cc3)cc2nc1OC (stereo unspecified)
[reply] > 10 µM

---

test system: M14 melanoma; assay: NCI tumour cell line growth inhibition, 48 h
measured quantity: TGI

• COC(=O)/C(=N\NC(N)=O)C(C(=O)C(=O)Nc1ccccc1OC)c1nc2ccc([N+](=O)[O-])cc2[nH]c1=O (centres undefined) = > 100 µM
• O=C(COc1ccc(/C=C2\COc3ccccc3C2=O)cc1)Nc1nccs1 = 20 µM
• COC1=CC(c2ccc[nH]2)=N/C1=C\c1[nH]c(C)c(CC(=O)OCc2ccccc2)c1CCC(=O)OCc1ccccc1 = 0.573 µM

[ask] Identify measured TGI obtained with M14 melanoma for Cc1ccc(S(=O)(=O)N2CCN(S(=O)(=O)c3ccc(C)cc3)CCN(S(=O)(=O)c3ccc(C)cc3)Cc3cc(C#N)c(C#N)cc3CN(S(=O)(=O)c3ccc(C)cc3)CC2)cc1 .
[reply] 89.1 µM
